The origin of these recorded values is patent US8029764B2.

Test system: colorectal tissue transcripts
Method Notes: SAGE of normal, adenoma and cancer colorectal tissue (transcript tag counts)
Design: species or system human
Assay Conditions: SAGE library CA2
Assay Endpoint: CA2 (SAGE tag count)
When you answer, write just the number.

ATGACGCTCA (chemistry not fully specified) | 4

The sequence identified as GATCCCAACT (chemistry not fully specified) registered its CA2 (SAGE tag count) at 1

The sequence identified as GCCCAGGGCC (chemistry not fully specified; the letters are possibly those of the target site) registered its CA2 (SAGE tag count) at 1

The sequence identified as GTATTGGGGC (chemistry not fully specified) registered its CA2 (SAGE tag count) at 0

The sequence identified as CCTGCCCCCC (chemistry not fully specified) registered its CA2 (SAGE tag count) at 4

---

Examples of sequences with documented AD1 (SAGE tag count) follow.
Test system: colorectal tissue transcripts
Method Notes: SAGE of normal, adenoma and cancer colorectal tissue (transcript tag counts)
Parameters: species or system human
Assay Conditions: SAGE library AD1

CCTGTGACAG (chemistry not fully specified) | 0
ACCTGCATCC (chemistry not fully specified) | 0
GTATTGGGGC (chemistry not fully specified) | 0

The sequence identified as GCCACATACT (chemistry not fully specified) registered its AD1 (SAGE tag count) at 0

---

System: colorectal tissue transcripts
Method Notes: SAGE of normal, adenoma and cancer colorectal tissue (transcript tag counts)
Parameters: species or system human
Assay Conditions: normal colorectal tissue library 2
So basically: NC2 (SAGE tag count) at 20 or higher? That is Satisfied. Lower than 20? That is Not satisfied.

query: Item TAGGATGGGG (chemistry not fully specified) with NC2 (SAGE tag count) of 20 or above?
result: Satisfied

query: Item GTGGTTCACG (chemistry not fully specified) with NC2 (SAGE tag count) of 20 or above?
result: Not satisfied

query: Item TCAGAGCGCT (chemistry not fully specified) with NC2 (SAGE tag count) of 20 or above?
result: Satisfied

query: Item TTGGGGTTTC (chemistry not fully specified) with NC2 (SAGE tag count) of 20 or above?
result: Satisfied

---

Examples of sequences with documented CA1 (SAGE tag count) follow.
System: colorectal tissue transcripts
Method Notes: SAGE of normal, adenoma and cancer colorectal tissue (transcript tag counts)
Design: species or system human
Assay Conditions: SAGE library CA1

GCAGGGCCTC (chemistry not fully specified) | 39
GGGGCAGGGC (chemistry not fully specified) | 15
GACATCAAGT (chemistry not fully specified) | 47
CTGGATCTGG (chemistry not fully specified; the letters are possibly those of the target site) | 5
CCTGCTTGTC (chemistry not fully specified) | 0
GCCAGGTTGC (chemistry not fully specified) | 1
CCTGCCCCCC (chemistry not fully specified) | 11
GGCTGGGCCT (chemistry not fully specified) | 10
GACCAGCCCA (chemistry not fully specified) | 12

Per the reported colorectal tissue transcripts data, ATGGTCTACG (chemistry not fully specified) has CA1 (SAGE tag count) of 1

---

Examples of sequences with documented CA1 (SAGE tag count) follow.
Test system: colorectal tissue transcripts
Method Notes: SAGE of normal, adenoma and cancer colorectal tissue (transcript tag counts)
Parameters: species or system human
Assay Conditions: SAGE library CA1

Some solved entries appear below for comparison.
CGGTGGGACC (target site or template, no part of the molecule; chemistry not given here) | 3
CAAGAGTTTC (chemistry not fully specified) | 0
AGAATAGCTT (chemistry not fully specified) | 11

The sequence identified as GTCATCACCA (chemistry not fully specified; the letters are possibly those of the target site) registered its CA1 (SAGE tag count) at 0

The sequence identified as ATTTCAAGAT (chemistry not fully specified) registered its CA1 (SAGE tag count) at 1
